Values were extracted from PubChem BioAssay (NCI).

# key: entry, value: growth
test system: MDA-MB-435 melanoma; test: NCI-60 one-dose screen, 48 h (100 = growth as untreated, 0 = no growth, -100 = all killed); conditions: 10 µM unless noted
About 83,000 compounds went through this panel and 20% of them were active in at least one assay; those are over-represented in the sample as a whole.
Lab book: enter the figure in %, no units written.

c1cnc2[nH]cc(-c3csc(-c4cn(CCCN5CCCCC5)c5ccccc45)n3)c2c1 : 1.72
C=C(C)[C@@H]1CC[C@]2(C(=O)NNC(=O)c3cccnc3)CC[C@]3(C)[C@H](CC[C@@H]4[C@@]5(C)CCCNC(C)(C)[C@@H]5CC[C@]43C)[C@@H]12 : 83.6
C[C@H]1[C@H]2C3=CC[C@@H]4[C@@]5(C)C/C(=C/c6ccco6)C(=O)C(C)(C)[C@@H]5CC[C@@]4(C)[C@]3(C)CC[C@@]2(C(=O)N2CCOCC2)CC[C@@H]1C : 97.1

Query: Look up and report measured growth for this entry: `COc1ccc(NC(=O)c2ccoc2COc2ccccc2)cc1`
Result: 73.6
